Numbers sourced from patent US20250270201A1.

# SYSTEM_TESTED: AHR (Homo sapiens, UniProt P35869)
# Construct: A human liver cancer cell line HepG2 endogenously expressing an AHR protein
# Sequence (P35869 11-848): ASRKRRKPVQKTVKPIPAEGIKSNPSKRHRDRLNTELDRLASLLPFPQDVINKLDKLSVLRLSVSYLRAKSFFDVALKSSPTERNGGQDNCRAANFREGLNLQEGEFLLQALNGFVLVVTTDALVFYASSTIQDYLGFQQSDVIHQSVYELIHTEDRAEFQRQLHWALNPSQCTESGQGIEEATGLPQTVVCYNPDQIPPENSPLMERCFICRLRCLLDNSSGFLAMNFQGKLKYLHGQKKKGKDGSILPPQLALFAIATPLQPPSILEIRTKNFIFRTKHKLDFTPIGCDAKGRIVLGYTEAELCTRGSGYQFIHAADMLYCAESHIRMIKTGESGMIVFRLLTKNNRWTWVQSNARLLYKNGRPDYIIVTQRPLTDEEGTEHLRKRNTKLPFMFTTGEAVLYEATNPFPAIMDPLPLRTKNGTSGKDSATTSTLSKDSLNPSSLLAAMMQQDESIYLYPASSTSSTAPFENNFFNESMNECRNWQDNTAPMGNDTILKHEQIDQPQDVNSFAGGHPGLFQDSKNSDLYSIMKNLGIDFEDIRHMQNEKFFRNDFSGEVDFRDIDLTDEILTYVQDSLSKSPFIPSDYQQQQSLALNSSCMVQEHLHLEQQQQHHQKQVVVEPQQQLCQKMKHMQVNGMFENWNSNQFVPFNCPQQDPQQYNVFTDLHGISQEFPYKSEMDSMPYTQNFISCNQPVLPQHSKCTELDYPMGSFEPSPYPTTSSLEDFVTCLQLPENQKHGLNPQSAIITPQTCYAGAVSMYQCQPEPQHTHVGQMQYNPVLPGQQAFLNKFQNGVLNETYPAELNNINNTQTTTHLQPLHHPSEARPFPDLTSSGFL
# METHOD_NOTES: Antagonistic effect for AHR in HepG2 cells stably transfected with CYP1A1-promoter firefly luciferase reporter
# CONDITION_DETAILS: AHR agonist-stimulated, 24 h compound treatment, average of two replicates
MEASURED_ATTRIBUTE: IC50

> print(dat)
                                   compound  experimental.result
1  C[C@@H]1COCCN1NC(=O)c1cc(-c2ccc(C(F)(F)F)cc2)nc(-c2cnn(C)c2)n1 [Compound 38]          0.5 to 1 µM
2  C[C@H]1COCCN1NC(=O)c1cc(-c2ccc(C(F)(F)F)cc2)nc(-c2cccnc2)n1 [Compound 4]             ≤ 0.5 µM
3  C[C@@H]1COCCN1NC(=O)c1cc(-c2ccc(C(F)(F)F)cc2)nc(-c2cccnc2)n1 [Compound 5]             ≤ 0.5 µM
4  COc1ccc(-c2cc(C(=O)NN(C(C)C)C(C)CO)nc(-c3cccnc3)n2)cc1 (centres unmarked) [Compound 48]          0.5 to 1 µM
5  CCN(NC(=O)c1cc(-c2ccc(C(F)(F)F)cc2)nc(-c2cnsc2)n1)C(C)CO (centres unmarked) [Compound 57]             ≤ 0.5 µM
6  CC1(C)COCCN1NC(=O)c1cc(-c2ccc(C(F)(F)F)cc2)nc(-c2cccnc2)n1 [Compound 27]             ≤ 0.5 µM
7  Cn1cc(-c2nc(C(=O)NN3CCOC[C@@H]3CO)cc(-c3ccc(C(F)(F)F)cc3)n2)cn1 [Compound 44]             ≤ 0.5 µM
8  CC(C)N(CCO)NC(=O)c1cc(-c2ccc(C(F)(F)F)cc2)nc(-c2cnn(C)c2)n1 [Compound 20]             ≤ 0.5 µM

* * *

pIC50 overview
# SYSTEM_TESTED: AHR (Homo sapiens, UniProt P35869)
# Construct: A human liver cancer cell line HepG2 endogenously expressing an AHR protein
# METHOD_NOTES: Antagonistic effect for AHR in HepG2 cells stably transfected with CYP1A1-promoter firefly luciferase reporter
# CONDITION_DETAILS: AHR agonist-stimulated, 24 h compound treatment, average of two replicates
pIC50: −log10 of the molar value.
MEASURED_ATTRIBUTE: pIC50

> print(dat)
                                   compound                       system.tested  experimental.result
1  CC(C)N(NC(=O)c1cc(-c2ccc(N)cc2)nc(-c2cccnc2)n1)C(C)CO (centres unmarked)  AHR (Homo sapiens, UniProt P35869)         6.00 to 6.30
2  CCN(NC(=O)c1cc(-c2ccc(Cl)cc2)nc(-c2cccc(F)c2)n1)C(C)CO (centres unmarked)  AHR (Homo sapiens, UniProt P35869)               ≥ 6.30
3  CC(C)N(NC(=O)c1cc(-c2ccc(OC(F)(F)F)cc2)nc(-c2cccnc2)n1)C(C)CO (centres unmarked)  AHR (Homo sapiens, UniProt P35869)               ≥ 6.30
4  CC(C)N(NC(=O)c1cc(-c2ccc(F)cc2)nc(-c2cccnc2)n1)C(C)CO (centres unmarked)  AHR (Homo sapiens, UniProt P35869)         6.00 to 6.30
5  Cn1cc(-c2nc(C(=O)NN3CCOC[C@@H]3CO)cc(-c3ccc(Cl)cc3)n2)cn1  AHR (Homo sapiens, UniProt P35869)               ≥ 6.30
6  CC(=O)N(NC(=O)c1cc(-c2ccc(C(F)(F)F)cc2)nc(-c2cnn(C)c2)n1)c1cnccn1  AHR (Homo sapiens, UniProt P35869)               ≥ 6.30
7  CC(=O)N(NC(=O)c1cc(-c2ccc(C(F)(F)F)cc2)nc(-c2cccnc2)n1)C(C)C  AHR (Homo sapiens, UniProt P35869)               ≥ 6.30
8  CC(C)N(NC(=O)c1cc(-c2ccc(C(F)(F)F)nc2)nc(-c2cccc(F)c2)n1)C(C)CO (centres unmarked) [Compound 65]  AHR (Homo sapiens, UniProt P35869)         6.00 to 6.30

* * *

# SYSTEM_TESTED: AHR (Homo sapiens, UniProt P35869)
# Construct: A human liver cancer cell line HepG2 endogenously expressing an AHR protein
# METHOD_NOTES: Antagonistic effect for AHR in HepG2 cells stably transfected with CYP1A1-promoter firefly luciferase reporter
# CONDITION_DETAILS: AHR agonist-stimulated, 24 h compound treatment, average of two replicates
MEASURED_ATTRIBUTE: IC50

> print(dat)
                                   compound  measured.attribute  experimental.result
1  CC(C)N(NC(=O)c1cc(-c2ccc(O)cc2)nc(-c2cccnc2)n1)C(C)CO (stereo not drawn)                IC50          0.5 to 1 µM
2  Cc1ccc(-c2cc(C(=O)NN(C(C)C)C(C)CO)nc(-c3cccnc3)n2)cn1 (stereo not drawn)                IC50          0.5 to 1 µM
3  CC(CO)NNC(=O)c1cc(-c2ccc(C(F)(F)F)cc2)nc(-c2cccnc2)n1 (stereo not drawn)                IC50             ≤ 0.5 µM

* * *

# SYSTEM_TESTED: AHR (Homo sapiens)
# Construct: A human liver cancer cell line HepG2 endogenously expressing an AHR protein; host or cells: HepG2 stably transfected with a CYP1A1-promoter firefly luciferase reporter
# METHOD_NOTES: Antagonistic effect for AHR in HepG2 cells stably transfected with CYP1A1-promoter firefly luciferase reporter
# Type: cell-based
# CONDITION_DETAILS: AHR agonist-stimulated, 24 h compound treatment, average of two replicates
MEASURED_ATTRIBUTE: IC50

> print(dat)
                                    molecule  measured.attribute  experimental.result
 1  O=C(NN1CCOC[C@@H]1CO)c1cc(-c2ccc(C(F)(F)F)cc2)nc(-c2cccnc2)n1                IC50             ≤ 500 nM
 2  CC(O)CN(NC(=O)c1cc(-c2ccc(Cl)cc2)nc(-c2cccnc2)n1)C(C)C (centres unmarked)                IC50             ≤ 500 nM
 3  O=C(NN1CCC[C@H]1CO)c1cc(-c2ccc(Cl)cc2)nc(-c2cccnc2)n1                IC50       500 to 1000 nM
 4  Cc1ccc(-c2cc(C(=O)NN(C(C)C)C(C)CO)nc(-c3cccnc3)n2)cc1 (centres unmarked)                IC50             ≤ 500 nM
 5  CCN(NC(=O)c1cc(-c2ccc(Cl)cc2)nc(-c2cccc(C)c2)n1)C(C)CO (centres unmarked)                IC50       500 to 1000 nM
 6  CCN(NC(=O)c1cc(-c2ccc(C(F)(F)F)cc2)nc(-c2cccc(F)c2)n1)C(C)CO (centres unmarked)                IC50             ≤ 500 nM
 7  C[C@@H]1COCCN1NC(=O)c1cc(-c2ccc(OC(F)(F)F)cc2)nc(-c2cnn(C)c2)n1                IC50             ≤ 500 nM
 8  CN(CCO)NC(=O)c1cc(-c2ccc(C(F)(F)F)cc2)nc(-c2cnn(C)c2)n1                IC50             ≤ 500 nM
 9  C[C@@H]1COCCN1NC(=O)c1cc(-c2ccc(OC(F)(F)F)cc2)nc(-c2cccnc2)n1                IC50             ≤ 500 nM
10  C[C@H]1COCCN1NC(=O)c1cc(-c2ccc(Cl)cc2)nc(-c2cnn(C)c2)n1                IC50             ≤ 500 nM
11  CC(C)N(NC(=O)c1cc(-c2cccc(F)c2)nc(-c2cccnc2)n1)C(C)CO (centres unmarked)                IC50       500 to 1000 nM
12  CC(C)N(NC(=O)c1cc(-c2ccc(C(F)(F)F)nc2)nc(-c2cccc(F)c2)n1)C(C)CO (centres unmarked) [Compound 37]                IC50             ≤ 500 nM
13  Cc1ccc(-c2cc(C(=O)NN(C(C)C)C(C)CO)nc(-c3cccnc3)n2)s1 (centres unmarked)                IC50       500 to 1000 nM
14  CC1COCC(CO)N1NC(=O)c1cc(-c2ccc(C(F)(F)F)cc2)nc(-c2cccnc2)n1 (centres unmarked)                IC50             ≤ 500 nM
15  C[C@H]1COCCN1NC(=O)c1cc(-c2ccc(Cl)cc2)nc(-c2cccnc2)n1                IC50             ≤ 500 nM
16  O=C(NN1CCOC[C@H]1CO)c1cc(-c2ccc(C(F)(F)F)cc2)nc(-c2cccnc2)n1                IC50             ≤ 500 nM
17  CC1(C)CN(NC(=O)c2cc(-c3ccc(C(F)(F)F)cc3)nc(-c3cccnc3)n2)CCO1                IC50       500 to 1000 nM
18  C[C@@H]1COCCN1NC(=O)c1cc(-c2ccc(Cl)cc2)nc(-c2cnn(C)c2)n1                IC50             ≤ 500 nM
19  CC(C)N(NC(=O)c1cc(-c2ccc(C(F)(F)F)cc2)nc(-c2cccc(F)c2)n1)C(C)CO (centres unmarked)                IC50             ≤ 500 nM
20  Cn1cc(-c2nc(C(=O)NN3CCOC[C@H]3CO)cc(-c3ccc(Cl)cc3)n2)cn1                IC50             ≤ 500 nM
21  C[C@@H]1COCCN1NC(=O)c1cc(-c2ccc(Cl)cc2)nc(-c2cccnc2)n1                IC50             ≤ 500 nM
22  CC1COCC(=O)N1NC(=O)c1cc(-c2ccc(OC(F)(F)F)cc2)nc(-c2cccnc2)n1 (centres unmarked)                IC50             ≤ 500 nM
23  CN(CCO)NC(=O)c1cc(-c2ccc(Cl)cc2)nc(-c2cccnc2)n1                IC50             ≤ 500 nM
24  CC1(C)COCCN1NC(=O)c1cc(-c2ccc(Cl)cc2)nc(-c2cccnc2)n1                IC50             ≤ 500 nM
25  CC(C)N(NC(=O)c1cc(-c2ccc(C(F)(F)F)cc2)nc(-c2cccnc2)n1)C(=O)c1cccnc1                IC50             ≤ 500 nM
26  CC(C)N(NC(=O)c1cc(-c2ccc(Cl)cc2)nc(-c2cccnc2)n1)C(C)CO (centres unmarked)                IC50             ≤ 500 nM
27  CC(C)N(NC(=O)c1cc(-c2ccc(C(F)(F)F)nc2)nc(-c2cccnc2)n1)C(C)CO (centres unmarked)                IC50       500 to 1000 nM
28  Cn1cc(-c2nc(C(=O)NN3CCOC[C@H]3CO)cc(-c3ccc(C(F)(F)F)cc3)n2)cn1                IC50             ≤ 500 nM
29  C[C@H]1COCCN1NC(=O)c1cc(-c2ccc(OC(F)(F)F)cc2)nc(-c2cccnc2)n1                IC50             ≤ 500 nM
30  CC(C)N(NC(=O)c1cc(-c2ccc(C(F)(F)F)cc2)nc(-c2cccnc2)n1)S(C)(=O)=O                IC50             ≤ 500 nM
31  CC(=O)N(NC(=O)c1cc(-c2ccc(C(F)(F)F)cc2)nc(-c2cccnc2)n1)c1cnccn1                IC50             ≤ 500 nM
32  CCN(NC(=O)c1cc(-c2ccc(C(F)(F)F)cc2)nc(-c2cccs2)n1)C(C)CO (centres unmarked)                IC50             ≤ 500 nM
